System: nitrosoamine-induced pancreatic cancer
Experiment: in vivo hemorrhagic necrosis effect
Design: species or system hamsters; key: four scales of G4, G3, G2 and G1; four scales of G4, G3, G2 and G1; four scales of G4, G3, G2 and G1; four scales of G4, G3, G2 and G1
Conditions: intensity of hemorrhagic necrosis at 24 hours following i.v. administration, and pathological study

compound: CCCCCCCOC(C)C1=C(C)C2=Cc3c(C(C)OCCCCCCC)c(C)c4[n]3[Ga][n]3c(c(C)c(CCC(=O)NC(CC(=O)O)C(=O)O)c3=CC3=NC(=C4)C(C)=C3CCC(=O)NC(CC(=O)O)C(=O)O)=CC1=N2 (stereo not shown) [(11) C7-Ga-DP-diAsp]
Hemorrhagic necrosis effect: G4

compound: CC1=C(CCC(=O)NC(CC(=O)O)C(=O)O)C2=NC1=Cc1c(C)c(C(C)OC(C)C)c3[n]1[Ga][n]1c(c(C)c(CCC(=O)NC(CC(=O)O)C(=O)O)c1=C2)=CC1=NC(=C3)C(C)=C1C(C)OC(C)C (stereo not shown) [(7) C3(iso)-Ga-DP-diAsp]
Hemorrhagic necrosis effect: G2

compound: CCCCCCCCCCCCOC(C)C1=C(C)c2cc3[nH]c(cc4nc(cc5[nH]c(cc1n2)c(C)c5C(C)OCCCCCCCCCCCC)C(C)=C4CCC(=O)NC(CC(=O)O)C(=O)O)c(CCC(=O)NC(CC(=O)O)C(=O)O)c3C.[Co] (stereo not shown) [(67) C12-Co-DP-diAsp]
Hemorrhagic necrosis effect: G1

compound: CC(C)=CCCC(C)CCOC(C)C1=C(C)C2=Cc3c(C(C)OCCC(C)CCC=C(C)C)c(C)c4[n]3[Mn][n]3c(c(C)c(CCC(=O)NC(CC(=O)O)C(=O)O)c3=CC3=NC(=C4)C(C)=C3CCC(=O)NC(CC(=O)O)C(=O)O)=CC1=N2 (stereo not shown) [(43) C10(Citro)-Mn-DP-diAsp]
Hemorrhagic necrosis effect: G3

Cited source for all entries: patent EP0350948B1
